// reported half-life per item
test: Metabolic stability in human liver microsome assessed as half life preincubated for 10 mins followed by NADPH addition and measured after 60 mins by LC-MS/MS analysis; type: ADME; settings: liver microsomes, time 70 min
Observation type: half-life (min)

| Compound | Unit spec | Recorded number |
| --- | --- | --- |
| CCOC(=O)C1=C(CN2CCN(C(C(=O)O)c3cccc([N+](=O)[O-])c3)CC2)NC(c2nccs2)=NC1c1ccc(F)cc1Br (centres undefined) | min | 108 |
| C[C@]12CC[C@H]3[C@@H](CCC4=CC(=O)CC[C@@]43C)[C@@H]1CC[C@@H]2O | min | 10.7 |
| CCOC(=O)C1=C(CN2CCN(C(/C=C/c3ccccc3)C(=O)O)CC2)NC(c2nccs2)=NC1c1ccc(F)cc1Br (centres undefined) | min | 93.7 |
| CCOC(=O)C1=C(CN2CCOCC2)NC(c2nccs2)=NC1c1ccc(F)cc1Br (centres undefined) | min | 2.1 |

* * *

// reported inhibition at 10 min, 10 µM per item
molecular target: CYP2D6 (Homo sapiens); experiment: Inhibition of CYP2D6 (unknown origin) at 10 uM using dextromethorphan as substrate incubated for 10 mins in presence of NADPH by LC-MS/MS analysis relative to control; assay type: ADME; conditions: probe dextromethorphan
Sequence (P10635 whole entry): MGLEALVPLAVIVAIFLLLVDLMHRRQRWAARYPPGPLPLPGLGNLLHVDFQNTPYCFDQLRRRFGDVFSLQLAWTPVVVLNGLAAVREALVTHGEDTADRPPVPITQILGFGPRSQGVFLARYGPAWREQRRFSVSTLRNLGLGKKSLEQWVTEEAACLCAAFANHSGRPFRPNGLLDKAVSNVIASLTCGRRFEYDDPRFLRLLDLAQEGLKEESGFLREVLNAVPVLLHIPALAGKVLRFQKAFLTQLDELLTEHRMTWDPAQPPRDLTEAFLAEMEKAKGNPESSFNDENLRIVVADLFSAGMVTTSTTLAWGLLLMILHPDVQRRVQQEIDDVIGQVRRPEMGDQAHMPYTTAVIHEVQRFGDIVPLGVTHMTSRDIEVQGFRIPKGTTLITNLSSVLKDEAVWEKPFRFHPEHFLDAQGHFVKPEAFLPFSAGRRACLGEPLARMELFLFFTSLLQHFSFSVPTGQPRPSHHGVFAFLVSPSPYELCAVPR

| Compound | inhibition at 10 min, 10 µM |
| --- | --- |
| C=C[C@H]1C[N@@]2CC[C@H]1C[C@@H]2[C@@H](O)c1ccnc2ccc(OC)cc12 [QUINIDINE] | 95.6% |
| CCOC(=O)C1=C(CN2CCN(C(C(=O)O)c3cccc([N+](=O)[O-])c3)CC2)NC(c2nccs2)=NC1c1ccc(F)cc1Br (stereo not drawn) | 34% |
| CCOC(=O)C1=C(CN2CCN(C(/C=C/c3ccccc3)C(=O)O)CC2)NC(c2nccs2)=NC1c1ccc(F)cc1Br (stereo not drawn) | 12.4% |

* * *

target: CYP2C9 (Homo sapiens, UniProt P11712); assay: Inhibition of CYP2C9 (unknown origin) at 10 uM using diclofenac as substrate incubated for 10 mins in presence of NADPH by LC-MS/MS analysis relative to control; type: ADME; conditions: probe diclofenac
Sequence (P11712 whole entry): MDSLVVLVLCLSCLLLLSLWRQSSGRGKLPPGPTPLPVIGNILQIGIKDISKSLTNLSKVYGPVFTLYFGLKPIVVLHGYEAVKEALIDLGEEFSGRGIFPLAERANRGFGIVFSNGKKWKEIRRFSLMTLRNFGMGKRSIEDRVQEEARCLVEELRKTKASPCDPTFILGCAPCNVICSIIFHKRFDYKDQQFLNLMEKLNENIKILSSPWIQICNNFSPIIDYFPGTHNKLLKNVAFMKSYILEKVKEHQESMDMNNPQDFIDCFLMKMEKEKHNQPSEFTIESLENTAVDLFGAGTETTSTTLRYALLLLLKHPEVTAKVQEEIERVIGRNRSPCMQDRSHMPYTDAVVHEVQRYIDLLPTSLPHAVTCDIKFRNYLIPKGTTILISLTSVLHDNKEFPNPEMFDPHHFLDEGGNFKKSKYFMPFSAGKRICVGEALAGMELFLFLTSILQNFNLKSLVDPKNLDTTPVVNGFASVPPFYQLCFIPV

| Compound | Study target | inhibition at 10 min, 10 µM / % |
| --- | --- | --- |
| CCOC(=O)C1=C(CN2CCN(C(/C=C/c3ccccc3)C(=O)O)CC2)NC(c2nccs2)=NC1c1ccc(F)cc1Br (stereo not drawn) | CYP2C9 (Homo sapiens, UniProt P11712) | 26.2 |
| Nc1ccc(S(=O)(=O)Nc2ccnn2-c2ccccc2)cc1 | CYP2C9 (Homo sapiens, UniProt P11712) | 87.1 |
| CCOC(=O)C1=C(CN2CCN(C(C(=O)O)c3cccc([N+](=O)[O-])c3)CC2)NC(c2nccs2)=NC1c1ccc(F)cc1Br (stereo not drawn) | CYP2C9 (Homo sapiens, UniProt P11712) | 31.6 |

* * *

assay: Water solubility of compound in phosphate buffer at pH 2 by HPLC analysis; format: physicochemical
// reported solubility per item
Observation type: solubility (µg/mL)

| Compound | Recorded number |
| --- | --- |
| CCOC(=O)C1=C(CN2CCN(C(C(=O)O)c3cccc([N+](=O)[O-])c3)CC2)NC(c2nccs2)=NC1c1ccc(F)cc1Br (stereo not drawn) | 375 |
| CCOC(=O)C1=C(CN2CCN(C(/C=C/c3ccccc3)C(=O)O)CC2)NC(c2nccs2)=NC1c1ccc(F)cc1Br (stereo not drawn) | 361 |
| CCOC(=O)C1=C(CN2CCOCC2)NC(c2nccs2)=NC1c1ccc(F)cc1Br (stereo not drawn) | 215 |

Each recorded value in this set is attributed to ChEMBL document CHEMBL5329208.
